FYI, the data here is from patent US20240239785A1.

Target: IKZF2 (Homo sapiens, UniProt Q96SW2+Q9UKS7)
Construct: endogenous in cells; host or cells: MOLT4 (CRISPR/Cas9 HiBit knock-in at the IKZF2 locus)
Sequence (Q9UKS7 whole entry): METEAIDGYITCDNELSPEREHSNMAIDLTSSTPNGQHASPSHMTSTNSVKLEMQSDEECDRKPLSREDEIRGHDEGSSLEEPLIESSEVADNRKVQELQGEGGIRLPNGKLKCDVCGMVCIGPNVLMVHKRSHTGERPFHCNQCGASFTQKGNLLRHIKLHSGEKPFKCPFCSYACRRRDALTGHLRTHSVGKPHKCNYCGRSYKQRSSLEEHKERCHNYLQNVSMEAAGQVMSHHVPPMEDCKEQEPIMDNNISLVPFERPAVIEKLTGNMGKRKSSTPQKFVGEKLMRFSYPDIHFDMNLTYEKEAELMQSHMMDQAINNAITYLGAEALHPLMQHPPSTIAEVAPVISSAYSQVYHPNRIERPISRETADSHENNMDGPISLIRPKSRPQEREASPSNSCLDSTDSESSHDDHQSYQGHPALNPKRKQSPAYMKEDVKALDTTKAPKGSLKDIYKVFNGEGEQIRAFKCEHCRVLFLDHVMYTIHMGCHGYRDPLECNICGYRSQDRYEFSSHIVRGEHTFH
Sequence (Q96SW2 whole entry): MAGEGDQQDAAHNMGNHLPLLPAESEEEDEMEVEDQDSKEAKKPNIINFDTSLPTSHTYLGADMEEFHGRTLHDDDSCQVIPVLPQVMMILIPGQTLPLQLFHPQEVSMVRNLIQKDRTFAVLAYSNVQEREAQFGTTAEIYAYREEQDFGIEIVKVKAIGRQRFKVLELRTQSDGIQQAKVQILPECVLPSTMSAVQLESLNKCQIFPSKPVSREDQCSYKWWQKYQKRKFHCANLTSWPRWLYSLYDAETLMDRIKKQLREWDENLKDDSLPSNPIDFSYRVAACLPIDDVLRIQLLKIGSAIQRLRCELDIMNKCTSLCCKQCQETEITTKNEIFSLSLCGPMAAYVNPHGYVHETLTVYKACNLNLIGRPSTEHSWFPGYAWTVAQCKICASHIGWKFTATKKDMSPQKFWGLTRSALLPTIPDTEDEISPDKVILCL
Sequence (Q16531 whole entry partner): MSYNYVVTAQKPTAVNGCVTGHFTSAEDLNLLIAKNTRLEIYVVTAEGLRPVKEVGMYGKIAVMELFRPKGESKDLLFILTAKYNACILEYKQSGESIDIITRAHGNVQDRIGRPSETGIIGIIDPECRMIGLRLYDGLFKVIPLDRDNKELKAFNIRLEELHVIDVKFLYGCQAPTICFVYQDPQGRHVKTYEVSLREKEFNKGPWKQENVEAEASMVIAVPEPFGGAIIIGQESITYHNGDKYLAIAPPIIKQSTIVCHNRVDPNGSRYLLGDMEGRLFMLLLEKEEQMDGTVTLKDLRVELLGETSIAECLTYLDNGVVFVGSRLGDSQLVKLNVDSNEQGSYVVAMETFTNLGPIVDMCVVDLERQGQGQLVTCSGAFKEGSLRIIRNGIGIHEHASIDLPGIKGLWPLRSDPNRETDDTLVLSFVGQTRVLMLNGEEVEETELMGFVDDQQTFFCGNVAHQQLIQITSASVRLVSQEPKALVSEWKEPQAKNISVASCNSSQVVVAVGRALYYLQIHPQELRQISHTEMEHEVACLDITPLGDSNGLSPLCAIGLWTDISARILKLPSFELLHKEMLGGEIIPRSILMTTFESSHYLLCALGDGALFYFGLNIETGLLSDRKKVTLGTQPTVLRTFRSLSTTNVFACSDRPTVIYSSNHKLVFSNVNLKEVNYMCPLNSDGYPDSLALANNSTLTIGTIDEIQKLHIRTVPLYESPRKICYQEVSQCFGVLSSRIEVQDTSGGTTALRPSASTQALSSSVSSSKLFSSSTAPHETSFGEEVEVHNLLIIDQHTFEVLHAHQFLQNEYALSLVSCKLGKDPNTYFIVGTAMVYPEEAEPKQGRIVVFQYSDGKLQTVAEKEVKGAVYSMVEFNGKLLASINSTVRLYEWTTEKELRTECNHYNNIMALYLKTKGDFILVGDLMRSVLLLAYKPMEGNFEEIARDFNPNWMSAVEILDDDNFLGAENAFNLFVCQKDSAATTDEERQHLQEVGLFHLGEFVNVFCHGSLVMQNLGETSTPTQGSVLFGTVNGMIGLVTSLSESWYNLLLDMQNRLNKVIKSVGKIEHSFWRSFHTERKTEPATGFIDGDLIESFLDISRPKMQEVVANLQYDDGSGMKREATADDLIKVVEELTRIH
Experiment: MOLT4 IKZF2 HiBit assay
Type: cell-based
Conditions: MOLT-4; MOLT4 IKZF2 HiBit cells, 30 μM, 6 hr (Dmax); read-out: % reduction of IKZF2 @ 30 μM (6 hr)
Description: MOLT4 IKZF2 HiBit Assay Protocol: This protocol used MOLT4 cells that were engineered using CRISPR/Cas9-mediated genomic insertion of HiBit, tagged to the N terminus of the IKZF2 coding sequence. Day 1. A 10-point dose response was created starting from 30 μM down to InM using a Tecan D300e. […] Finally, luminescence signal was read using a BMG Labtech PHERAstar FSX. […] The extent of degradation (range of luminescence) from the highest to lowest concentration points was calculated to determine Dmax.
Where a name gives a salt, the structure may show the parent alone.
Some compounds, each annotated with its measured Dmax at 30 µM.
Your answer is read as %, so omit the unit and give the number.

Inquiry: For the compound shown here, O=C1CCC(N2C(=O)c3ccc(C4(O)CCN(Cc5ccc(F)c(F)c5)CC4)cc3C2=O)C(=O)N1 (stereo not drawn) [Compound 60, HCl salt] , give the reported Dmax at 30 µM.
Reply text: 80

Inquiry: Same again, this time with Cn1c(CN2CCC(O)(c3ccc4c(c3)C(=O)N(C3CCC(=O)NC3=O)C4=O)CC2)cc2ccccc21 (stereo not drawn) [Compound 142, formic acid salt]
Reply text: 82

Inquiry: // same read-out, input: N#Cc1cccc(CN2CCC(O)(c3ccc4c(c3)C(=O)N(C3CCC(=O)NC3=O)C4=O)CC2)c1 (stereo not drawn)
Reply text: 80
